Assay: qHTS Assay for Lipid Storage Modulators (AID 1519)
Settings: Drosophila S3 cells, BODIPY lipid droplet/cell ratio, laser cytometry; measured here: cell count channel max response; cells loaded with oleic acid
Results filed as inconclusive are left out.
Item-by-item account of max response
quantity measured: max response

compound_structure=CCCCc1ccc2nc(NC(=O)OC)[nH]c2c1 quantity_measured="max response" test_value=-4.18%
compound_structure=CS(=O)(=O)OCCCCOS(C)(=O)=O quantity_measured="max response" test_value=2.98%
compound_structure=Cc1ccc(C)c(OCCCC(C)(C)C(=O)O)c1 quantity_measured="max response" test_value=10.3%
compound_structure=O=C(O)c1cn(-c2ccc(F)cc2)c2cc(N3CCNCC3)c(F)cc2c1=O quantity_measured="max response" test_value=14.8%

---

Assay: Quantitative High-Throughput drug screen in 47 multiple myeloma cell lines against the NCATS MIPE library collection: JJN3_DSMZ cell viability assay (AID 1918966; also: nearly all actives have a fitted effect of over 50% in size)
Conditions: JJN3 myeloma cells viability, CellTiter-Glo ATP, 48 h; series mostly up to 45.8 µM
Source text: PI: Beverly A. Mock Ph.D. Laboratory of Cancer Biology and Genetics, Center for Cancer Research, National Cancer Institute, National Institute of Health, Bethesda, Maryland […] 5; Detector; 425V; Luminescence; Viewlux PerkinElmer. […] 1. […] Briefly, the corresponding myeloma cell lines were screened in 1,536-well plates with 500 cells, 5-uL per well for inhibition of cell viability (assessed by measuring ATP levels with CellTiterGlo). […]
Inconclusive results are not listed. Active and inactive are the calls of the source. Calls come from the whole dose curve; as a rule, active = well fitted cell-killing curve with a large enough effect; inconclusive = small, poorly fitted or top-dose-only effect, or effect the other way; inactive = no such curve, though single readings can be large or run the other way.
Outcomes: active, inactive

compound=Oc1ccc(-c2nc(-c3ccc(F)cc3)c(-c3ccncc3)[nH]2)cc1 assigned_label=active
compound="Cc1ccc(S(=O)(=O)NC(=O)NN2CC3CCCC3C2)cc1 (stereo not drawn)" assigned_label=active
compound="CC(C)[N+]1(C)[C@@H]2CC[C@H]1CC(OC(=O)C(CO)c1ccccc1)C2 (stereo partly drawn)" assigned_label=inactive
compound=NCCCCNCCCN assigned_label=active
compound="CCC1=C(C)CN(C(=O)NCCc2ccc(S(=O)(=O)NC(=O)NC3CCC(C)CC3)cc2)C1=O (stereo not drawn)" assigned_label=inactive
compound="C[C@@H](N)C1CCC(C(=O)Nc2ccncc2)CC1 (stereo partly drawn)" assigned_label=inactive
compound="Nc1cccc2c1CN(C1CCC(=O)NC1=O)C2=O (stereo not drawn)" assigned_label=active
compound=Cc1cc2cc3c(C)cc(=O)oc3c(C)c2o1 assigned_label=active

---

Listing: cell viability, % of control (lower = more cytotoxic) of selected compounds
Assay: High-throughput drug toxicity screening in the BPDCN cell line Gen2.2 (AID 1224824);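 also: cells exposed to compounds for 48 h before reading; 100% = DMSO and 0% = bortezomib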
Details: Gen2.2 BPDCN cells; at 45.8 µM (top of the series) unless noted
quantity measured: cell viability, % of control (lower = more cytotoxic) (%)

compound=Cc1nc(-c2ccc(OCC(C)C)c(C#N)c2)sc1C(=O)O unit_info=% test_value=41.7
compound=CCOC(=O)C1=C[C@@H](OC(CC)CC)[C@H](NC(C)=O)[C@@H](N)C1 unit_info=% test_value=152
compound=Cc1cc(=O)oc2cc(O)ccc12 unit_info=% test_value=183
compound=O=C(NCCO[N+](=O)[O-])c1cccnc1 unit_info=% test_value=178
compound=COc1cc(C(C)=O)ccc1OCCCN1CCC(c2noc3cc(F)ccc23)CC1 unit_info=% test_value=69.7
compound="COCCCOc1ccnc(CS(=O)c2nc3ccccc3[nH]2)c1C (stereo not drawn)" unit_info=% test_value=139
compound=CCCCc1ccc2nc(NC(=O)OC)[nH]c2c1 unit_info=% test_value=47.1
compound=CN1C(C(=O)Nc2ccccn2)=C(O)c2sccc2S1(=O)=O unit_info=% test_value=40.6
